# Tested on: MDA-MB-231 breast
# TEST: NCI tumour cell line growth inhibition, 48 h
Recorded TGI, one value per entry.

Example compounds with recorded TGI:
Exam item: // lookup TGI for CC(=O)O[C@H]1CCC2[C@@H]3CCC4Nc5oncc5C[C@]4(C)C3CC[C@@]21C (some centres not stated)
Marked response: > 10 µM

Exam item: // lookup TGI for CCCOc1ccc2sc(NC(=O)OC)nc2c1
Marked response: > 100 µM

Exam item: // lookup TGI for CC1C[C@]2(C)C(=NCCN)Nc3ccccc3[C@@H]2N(C)c2ccccc21 (some centres not stated)
Marked response: 21.1 µM

Exam item: // lookup TGI for O=[N+]([O-])/C(C(Cl)=C(Cl)Cl)=C(/Nc1ccccc1)SCc1ccccc1
Marked response: 36.4 µM

Exam item: // lookup TGI for CC1=C(C(=O)Nc2ccc(Cl)c(Cl)c2)C(c2cccc(Oc3ccccc3)c2)NC(=O)N1 (configuration not stated)
Marked response: 16.3 µM

Exam item: // lookup TGI for O=C1NC(=O)C(c2cccc([N+](=O)[O-])c2)=C1Nc1cc(Cl)c(O)c(Cl)c1
Marked response: > 25 µM

Next, consider the following compound.
Exam item: // lookup TGI for Cc1ccccc1N/C(=C(/C(Cl)=C(Cl)Cl)[N+](=O)[O-])n1nnc2ccccc21
Marked response: 58.1 µM

----------
# System: SF-539 CNS
# TEST: NCI tumour cell line growth inhibition, 48 h
Recorded TGI, one value per entry.

Example molecules with recorded TGI:
Exam item: # get_value(readout= TGI, system= SF-539 CNS) for Cc1nc2sc3c(c2c(=O)[nH]1)CCCC3
Marked response: > 100 µM

Exam item: # get_value(readout= TGI, system= SF-539 CNS) for [N-]=[N+]=Nc1cc(=O)[nH]nc1-c1ccccc1
Marked response: > 100 µM

Next, consider the following molecule.
Exam item: # get_value(readout= TGI, system= SF-539 CNS) for Cc1cc2c(cc1C)C(=O)C1(C2)Cc2c(C)ccc(C)c2C1=O (stereo not drawn)
Marked response: > 100 µM

----------
# Test system: MDA-MB-435
# TEST: NCI tumour cell line growth inhibition, 48 h
VALUE TYPE: TGI

Example molecules with recorded TGI:
Exam item: // lookup TGI for COc1ccc(-n2cnn3c(=O)c4cn[nH]c4nc23)cc1
Marked response: > 10 µM

Exam item: // lookup TGI for CC1=NC(=Cc2cc(Br)cc(Br)c2)C(=O)N1n1c(-c2ccccc2)nc2ccccc2c1=O
Marked response: > 100 µM

Exam item: // lookup TGI for CC(=O)O/C(=C1\C[C@H]2[C@@H]3CC=C4C[C@@H](OC(C)=O)CC[C@]4(C)[C@H]3CC[C@]2(C)C1=O)C(F)(F)F
Marked response: 16.4 µM

Exam item: // lookup TGI for COC(=O)[C@]12CCC(C)(C)C[C@H]1[C@H]1C(=O)C=C3[C@@]4(C)C=C(C#N)C(=O)C(C)(C)[C@@H]4CC[C@@]3(C)[C@]1(C)CC2
Marked response: 0.0585 µM

Exam item: // lookup TGI for O=C(/N=C/c1c(O)c2ccccc2oc1=O)Oc1ccccc1
Marked response: 66.5 µM

---
Exam item: // lookup TGI for CCOc1ccncc1[N+](=O)[O-]
Marked response: > 100 µM

Exam item: // lookup TGI for NCCSc1nc(-c2ccccc2)c(-c2ccccc2)o1
Marked response: > 100 µM

Exam item: // lookup TGI for N#Cc1[nH]c(=S)[nH]c1N
Marked response: > 100 µM

Exam item: // lookup TGI for Cc1cc(C)c(/C=C2\C(=O)Nc3ccc(NC(=O)CCCCCCC(=O)NO)cc32)[nH]1
Marked response: > 100 µM

Exam item: // lookup TGI for [N-]=[N+]=NC1C(O)C(CO)OC1n1ccc(=O)[nH]c1=O (stereo unspecified)
Marked response: > 875 µM

----------
Recorded TGI, one value per entry.
# System: 786-0 renal
# TEST: NCI tumour cell line growth inhibition, 48 h

Exam item: // lookup TGI for O=CN1CCN(CC(O)CN2CCCCC2)CC1 (centres undefined)
Marked response: > 100 µM

Exam item: // lookup TGI for Cn1c(=O)oc2cc(C(O)CN3CCN(Cc4ccccn4)CC3)c(Cl)cc21 (centres undefined)
Marked response: > 100 µM

Exam item: // lookup TGI for COc1ccc(NC(=O)N(C)CC2(O)CCC(C(C)(C)C)CC2)cc1 (centres undefined)
Marked response: > 100 µM

Exam item: // lookup TGI for O=C(CCc1cc(O)ccc1O)OCCc1ccccc1
Marked response: 24.5 µM

Exam item: // lookup TGI for O=C(O)C1C2C=CC(C2)C1c1ccccc1 (centres undefined)
Marked response: > 100 µM

Exam item: // lookup TGI for Cc1cc(C2CC(O)C(CO)O2)c(F)cc1F (centres undefined)
Marked response: > 100 µM

Exam item: // lookup TGI for CC(C)C(=O)NS(=O)(=O)c1ccccc1
Marked response: > 100 µM

Exam item: // lookup TGI for CC(C(=O)OCc1ccccc1)(c1ccco1)N1C(=O)OC(c2ccccc2)C1c1ccccc1 (centres undefined)
Marked response: > 100 µM

Next, consider the following compound.
Exam item: // lookup TGI for CC(C)N(C(=O)C1(O)c2ccccc2C=Cc2ccccc21)C(C)C
Marked response: 38.8 µM

----------
Recorded TGI, one value per entry.
# Tested on: SF-295 CNS
# TEST: NCI tumour cell line growth inhibition, 48 h

Exam item: // lookup TGI for Cc1ccc(S(=O)(=O)c2ccc(N)cc2)cc1
Marked response: > 100 µM

Exam item: // lookup TGI for Cc1ccc(-c2n[nH]c(=O)n2/N=C\c2ccc([N+](=O)[O-])cc2)cc1
Marked response: > 100 µM

Exam item: // lookup TGI for c1ccc([P+](CC[P+](c2ccccc2)(c2ccccc2)c2ccccc2)(c2ccccc2)c2ccccc2)cc1
Marked response: > 100 µM

Exam item: // lookup TGI for NC(=O)c1cc(S(=O)(=O)Nc2nnc(-c3ccccc3)c(-c3ccccc3)n2)c(SCc2ccccc2)cc1Cl
Marked response: > 100 µM

Exam item: // lookup TGI for Cc1nc2sc3c(c2c(=O)[nH]1)CCCC3
Marked response: > 100 µM

Exam item: // lookup TGI for O=C(CCc1cc(O)ccc1O)OCCc1ccccc1
Marked response: > 100 µM

Exam item: // lookup TGI for [N-]=[N+]=Nc1cc(=O)n2c3c(cccc13)CCC2
Marked response: > 100 µM

Exam item: // lookup TGI for [N-]=[N+]=NC1C(O)C(CO)OC1n1ccc(=O)[nH]c1=O (centres undefined)
Marked response: > 875 µM

Next, consider the following molecule.
Exam item: // lookup TGI for O=C(O)CC(NC(=O)CP(=O)(O)O)C(=O)O (centres undefined)
Marked response: > 10000 µM

----------
# System: OVCAR-3 ovarian
# TEST: NCI tumour cell line growth inhibition, 48 h
Recorded TGI, one value per entry.

Exam item: // lookup TGI for Cc1cc(C)nc(NS(=O)(=O)c2ccc(NC(=O)c3cccc4c(Nc5ccc(S(N)(=O)=O)cc5)c5ccccc5nc34)cc2)n1
Marked response: 27.6 µM

Exam item: // lookup TGI for CC1=NC(=Cc2cc(Br)cc(Br)c2)C(=O)N1n1c(-c2ccccc2)nc2ccccc2c1=O
Marked response: > 100 µM

Exam item: // lookup TGI for N#CC(OC1OC(COC2OC(CO)C(O)C(O)C2O)C(O)C(O)C1O)c1ccccc1 (stereo not given)
Marked response: > 225 µM

Exam item: // lookup TGI for O=C1/C(=C/c2cccc(Br)c2)Cc2ccccc21
Marked response: > 100 µM

Exam item: // lookup TGI for Cc1c(O)c(OC2OC(CO)C(O)C(O)C2O)cc2c1CC[C@@H]1C2(C)C(=O)C[C@]2(C)[C@@H]([C@@](C)(O)C(=O)CCC(C)(C)O)[C@H](O)C[C@@]12C (stereo not given in full)
Marked response: > 100 µM

----------
# Tested on: OVCAR-4 ovarian
# TEST: NCI tumour cell line growth inhibition, 48 h
VALUE TYPE: GI50

Exam item: // lookup GI50 for OCCCNc1nccc(-c2c(-c3ccc(F)cc3)nn3cc(C(F)(F)F)ccc23)n1
Marked response: 10.8 µM

Exam item: // lookup GI50 for CSc1ccc2c(c1)C(=O)c1c-2n(CCCBr)c(=O)c2cc([N+](=O)[O-])ccc12
Marked response: > 100 µM

---
Exam item: // lookup GI50 for C=C1C(=O)O[C@H]2[C@H]1CC/C(COC(=O)/C=C\C(=O)NCc1ccc(Cn3c(=O)sn(CCCC)c3=O)cc1)=C\CC[C@@]1(C)O[C@@H]21
Marked response: 0.626 µM

----------
# System: SNB-19 CNS
# TEST: NCI tumour cell line growth inhibition, 48 h
VALUE TYPE: TGI

Exam item: // lookup TGI for O=C1c2cccc3cccc(c23)C2NCCCN12 (stereo not given)
Marked response: > 100 µM

Exam item: // lookup TGI for CC(C)N(CCn1c2c3ccccc3ccc2c2oc(=O)c3ccccc3c21)C(C)C
Marked response: > 100 µM

Exam item: // lookup TGI for O=C(Nc1nncs1)NS(=O)(=O)n1c(=S)sc2ccccc21
Marked response: > 100 µM

Exam item: // lookup TGI for Cc1cn(C2CC(O)C(CO[Si](C)(C)C(C)(C)C)OC2OC(C)C)c(=O)[nH]c1=O (stereo not given)
Marked response: > 100 µM

Exam item: // lookup TGI for COc1ncc(-c2ccc3ncnc(Nc4cccc(Cl)c4)c3c2)cc1NS(=O)(=O)C1CC1
Marked response: > 100 µM

Exam item: // lookup TGI for COc1ccc2c(c1)nc1n2C(c2c(Cl)cccc2Cl)SC1 (stereo not given)
Marked response: > 92.7 µM

Exam item: // lookup TGI for CN(C)CCNC(=O)c1ccc2nc3c(nc2c1)C(=O)c1ccccc1-3
Marked response: > 100 µM

Exam item: // lookup TGI for C#CC(C)(C)OC(=O)C(=[N+]=[N-])C(C)=O
Marked response: > 10 µM

Exam item: // lookup TGI for CCOC(=O)/C=C/[C@H](O[Si](CC)(CC)CC)C(C)(C)C
Marked response: > 100 µM

Exam item: // lookup TGI for NC(=O)c1cc(S(=O)(=O)Nc2nnc(-c3ccccc3)c(-c3ccccc3)n2)c(SCc2ccccc2)cc1Cl
Marked response: > 100 µM
